Source listed as patent US5691373A.

# assay.target: ETA (Oryctolagus cuniculus)
# stated.conditions: ERBA-A IC50, [125I]-ET-1, rabbit renal artery vascular smooth muscle cells
pIC50 listing for selected compounds.
pIC50 field: float, defined as -log10 of concentration (mol/L).

Example cases with answers are listed next.
COc1ccc(C2(O)OC(=O)C(c3cc(OC)cc(OC)c3)=C2Cc2cc(OC)c(OC)c(OC)c2)cc1 (stereo not shown)    8.85
COc1ccc(C2(O)OC(=O)C(c3ccc4c(c3)OCO4)=C2CCC2CCCCC2)cc1 (stereo not shown)    5.48
COc1ccc(C2(O)OC(=O)C(c3ccc4c(c3)OCO4)=C2Cc2ccc(C(C)C)cc2)cc1 (stereo not shown)    7.24

Next compound, please.
Req: For the compound shown here, COc1ccc(C2(O)OC(=O)C(c3ccc4c(c3)OCO4)=C2Cc2ccc(C(F)(F)F)cc2)cc1 (stereo not shown) , give the reported pIC50.
Resp: 6.60

---

Quick record of pIC50 values for UniProt A5A8K3.
pIC50 field: float, defined as -log10 of concentration (mol/L).

COc1ccc(C2(O)OC(=O)C(c3ccc4c(c3)OCO4)=C2Cc2cccc(C)c2)cc1 (centres unmarked) [Example 90]    7.06
COc1ccc(C2(O)OC(=O)C(c3ccc4c(c3)OCO4)=C2Cc2cccc(C(F)(F)F)c2)cc1 (centres unmarked) [Example 82]    6.85
COc1ccc(C2(O)OC(=O)C(c3cc(OC)cc(OC)c3)=C2Cc2cccc(Cl)c2)cc1 (centres unmarked) [Example 127]    6.82
CCCOc1cccc(CC2=C(c3cc(OC)cc(OC)c3)C(=O)OC2(O)c2ccc(OC)cc2)c1 (centres unmarked) [Example 126]    7.07

Req: For the compound shown here, COc1ccc(C2(O)OC(=O)C(c3cc(OC)cc(OC)c3)=C2Cc2cccnc2)cc1 (centres unmarked) [Example 133] , give the reported pIC50.
Resp: 7.12

---

# assay.target: ETA (Oryctolagus cuniculus, UniProt A5A8K3)
# Sequence (A5A8K3 21-427): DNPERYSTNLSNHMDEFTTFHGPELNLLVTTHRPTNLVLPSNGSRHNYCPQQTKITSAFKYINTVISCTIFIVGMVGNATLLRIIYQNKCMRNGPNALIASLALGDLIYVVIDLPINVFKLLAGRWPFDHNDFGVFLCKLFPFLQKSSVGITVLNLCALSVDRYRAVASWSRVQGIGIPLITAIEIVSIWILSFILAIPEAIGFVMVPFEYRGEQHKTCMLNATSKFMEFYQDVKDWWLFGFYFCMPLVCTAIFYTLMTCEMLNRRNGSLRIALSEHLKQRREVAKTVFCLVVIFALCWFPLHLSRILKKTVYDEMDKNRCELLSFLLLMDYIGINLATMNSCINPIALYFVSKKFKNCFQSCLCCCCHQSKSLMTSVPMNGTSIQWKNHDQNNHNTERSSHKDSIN
# protocol.summary: VERA-A: antagonism of ET-1 stimulated vasoconstriction in the rabbit femoral artery (ETA)
# Assay type: cell-based
# stated.conditions: ET-1, rabbit femoral artery; read-out: VERA-A pA2 (converted)
measured.property: Kb
Kindly report the value followed by its unit.

COc1ccc(C2(O)OC(=O)C(c3ccc4c(c3)OCO4)=C2Cc2ccc(OC)c(Cl)c2)cc1 (stereo not shown)    0.251 µM

Next compound, please.
Req: For the compound shown here, COc1ccc(C2(O)OC(=O)C(c3cc(OC)cc(OC)c3)=C2Cc2cccc(OC)c2)cc1 (stereo not shown) , give the reported Kb.
Resp: 0.2 µM

---

Quick record of pIC50 values for UniProtKB P21451.
Sequence (P21451 27-442): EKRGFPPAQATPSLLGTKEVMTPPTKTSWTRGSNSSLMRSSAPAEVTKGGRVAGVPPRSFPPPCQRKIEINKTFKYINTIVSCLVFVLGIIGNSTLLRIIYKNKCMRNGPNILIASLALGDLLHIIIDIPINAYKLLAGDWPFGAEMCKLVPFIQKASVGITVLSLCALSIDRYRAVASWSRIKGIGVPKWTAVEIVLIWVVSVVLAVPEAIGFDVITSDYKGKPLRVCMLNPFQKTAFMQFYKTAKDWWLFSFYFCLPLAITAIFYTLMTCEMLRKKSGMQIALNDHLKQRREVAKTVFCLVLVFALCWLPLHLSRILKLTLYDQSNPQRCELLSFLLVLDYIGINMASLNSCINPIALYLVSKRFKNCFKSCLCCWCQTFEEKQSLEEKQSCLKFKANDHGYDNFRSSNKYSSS
pIC50 field: float, defined as -log10 of concentration (mol/L).

CC(C)c1ccc(C2=C(Cc3ccc4ccccc4c3)C(O)(c3ccc(Cl)cc3)OC2=O)cc1 (racemic)    5.05

Req: Give recorded pIC50 with UniProtKB P21451 for the following molecule: COc1cccc(CC2=C(c3ccc4c(c3)OCO4)C(=O)OC2(O)c2ccc(Cl)cc2)c1 (stereo not shown)
Resp: 5.11

Req: Give recorded pIC50 with UniProtKB P21451 for the following molecule: CC(C)c1ccc(CC2=C(c3ccc(Cl)c(Cl)c3)C(=O)OC2(O)c2ccc(Cl)cc2)cc1 (stereo not shown)
Resp: 4.89

Req: Give recorded pIC50 with UniProtKB P21451 for the following molecule: COc1ccc(C2(O)OC(=O)C(c3ccc4c(c3)OCO4)=C2Cc2ccccc2)cc1OC (stereo not shown)
Resp: 6.12

Req: Give recorded pIC50 with UniProtKB P21451 for the following molecule: CC(C)c1ccc(CC2=C(c3ccc4c(c3)OCO4)C(=O)OC2(O)c2ccc(Cl)cc2)cc1 (racemic)
Resp: 5.04

Req: Give recorded pIC50 with UniProtKB P21451 for the following molecule: O=C1OC(O)(c2ccc(Cl)cc2)C(Cc2ccccc2)=C1c1ccc(Cl)c(Cl)c1 (racemic)
Resp: 4.96

Req: Give recorded pIC50 with UniProtKB P21451 for the following molecule: COc1cccc(C2(O)OC(=O)C(c3ccc4c(c3)OCO4)=C2Cc2ccccc2)c1 (stereo not shown)
Resp: 5.82

Req: Give recorded pIC50 with UniProtKB P21451 for the following molecule: O=C1OC(O)(c2ccc(Cl)cc2)C(Cc2ccccc2)=C1c1ccc2c(c1)OCCO2 (stereo not shown)
Resp: 4.89

Req: Give recorded pIC50 with UniProtKB P21451 for the following molecule: COc1ccc(CC2=C(c3ccc4c(c3)OCO4)C(=O)OC2(O)c2ccc(Cl)cc2)cc1 (stereo not shown)
Resp: 5.20

Req: Give recorded pIC50 with UniProtKB P21451 for the following molecule: O=C1OC(O)(c2ccc(Cl)cc2)C(Cc2ccc3c(c2)OCO3)=C1c1ccc(Cl)c(Cl)c1 (racemic)
Resp: 5.08

Req: Give recorded pIC50 with UniProtKB P21451 for the following molecule: Cc1ccc(CC2=C(c3ccc4c(c3)OCO4)C(=O)OC2(O)c2ccc(Cl)cc2)cc1 (stereo not shown)
Resp: 5.24

Req: Give recorded pIC50 with UniProtKB P21451 for the following molecule: COc1ccc(C2(O)OC(=O)C(c3ccc4c(c3)OCO4)=C2Cc2ccc(Cl)c(Cl)c2)cc1 (stereo not shown)
Resp: 6.05

Req: Give recorded pIC50 with UniProtKB P21451 for the following molecule: O=C1OC(O)(c2ccc(Cl)cc2)C(Cc2ccc(Cl)cc2)=C1c1ccc2c(c1)OCO2 (stereo not shown)
Resp: 5.04

Req: Give recorded pIC50 with UniProtKB P21451 for the following molecule: COc1ccc(C2(O)OC(=O)C(c3ccc4c(c3)OCO4)=C2Cc2ccc(C(C)(C)C)cc2)cc1 (stereo not shown)
Resp: 6.28

Req: Give recorded pIC50 with UniProtKB P21451 for the following molecule: COc1ccc(C2(O)OC(=O)C(c3cc(OC)cc(OC)c3)=C2Cc2cccc(C=O)c2)cc1 (stereo not shown)
Resp: 5.92

Req: Give recorded pIC50 with UniProtKB P21451 for the following molecule: COc1ccc(C2=C(Cc3ccc(C(C)C)cc3)C(O)(c3ccc(Cl)cc3)OC2=O)cc1OC (racemic)
Resp: 4.82
